assay: Chamelogk, chromatographic chameleonicity descriptor (PLRP-S RP-HPLC); format: physicochemical; conditions: Exp. minus Ext. log k' PLRP-S at 100% MeCN; linear fit at 50, 60, 70% MeCN; 20 mM ammonium acetate pH 7.0; 30 °C
Recorded Chamelogk by entry
Returns: the value as a bare number; no unit string appended.

[
  {
    "structure.string": "COc1cc(C(=O)NCCOCCOCCOCC(=O)N[C@H](C(=O)N2C[C@@H](O)C[C@H]2C(=O)NCc2ccc(-c3scnc3C)cc2)C(C)(C)C)ccc1Nc1ncc(C(F)(F)F)c(Oc2cccc3c2C(=O)CC3)n1",
    "observed": 0.7
  }
]

The recorded Chamelogk for entry `Clc1ccccc1C(c1ccccc1)(c1ccccc1)n1ccnc1` equals 0.71
